- target.entity: HLA-B*07:02 (human)
- assay.notes: UV peptide exchange; HLA class I ELISA
- settings: remark: other sources report otherwise
outcome.measure: exchange rate with Pos (%)

RVGNCKHLK (here or on the partner: biotinylated heavy chain) [P82 9-mer … (AR-V7)] = 12.9
IVWWCPMSR (here or on the partner: biotinylated heavy chain) [P98 9-mer … (TP53 R213D frameshift)] = 6.7
LMAQRLLLR (here or on the partner: biotinylated heavy chain) [P97 9-mer … (FOXRED2-TXN2 fusion)] = 7
YQFTFDLLI (here or on the partner: biotinylated heavy chain) [P48 9-mer … (AR.p.H875Y)] = 12.8
IPVLTRWPL (here or on the partner: biotinylated heavy chain) [P19 9-mer … (TMEM222-LOC644061 fusion)] = 91.3
LLERNSFEV (here or on the partner: biotinylated heavy chain) [P73 9-mer … (TP53 G266E)] = 8.7
QLIAMDSAI (here or on the partner: biotinylated heavy chain) [P22 9-mer … (SLC45A3-ELK4 fusion)] = 8.3
YCMAAPMGL (here or on the partner: biotinylated heavy chain) [P76 9-mer … (AR-V3)] = 91.5

meta.source: patent US20230029453A1
